# Test system: Lgr5 (MarsCy1-Lgr5-EGFP, U2OS)
# PROTOCOL TEXT: cell-surface Lgr5 expression (SCi1 fluorescence, background-subtracted) relative to WT DMSO (fold of DMSO control); higher = more Lgr5 at the plasma membrane, active = hit call of the paper
# SETUP CONDITIONS: U2OS MarsCy1-Lgr5-EGFP stable; treatment time: overnight; 16 µM; library: Johns Hopkins Clinical Compound Library
Counter-ions that a name gives are not always drawn. Out of some 1,200 compounds screened, about 50 (4%) showed activity. This excerpt belongs to a sample that is enriched for actives.
READOUT KIND: cell-surface Lgr5 expression
Output spec: single numeric token, no unit.

Exam item: Report cell-surface Lgr5 expression for CCCCCC(=O)O[C@]1(C(C)=O)CC[C@H]2[C@@H]3CCC4=CC(=O)CC[C@]4(C)[C@H]3CC[C@@]21C [Progesterone caproate (17alpha-hydroxyprogesterone)] please.
Marked response: 1.05

Exam item: Try the compound CN1CC(O)C2=C/C(=N/NC(N)=O)C(=O)C=C21 (stereo not given)
Marked response: 1.16

Exam item: Try this compound too: "C[C@@H]1C[C@H]2[C@@H]3CCC4=CC(=O)C=C[C@]4(C)[C@@]3(F)[C@@H](O)C[C@]2(C)[C@H]1C(=O)CO"
Marked response: 1.41

Exam item: Entry to check: "[Fe+3].[Fe+3].[O-2].[O-2].[O-2].[O-2].[Zn+2]"
Marked response: 0.886

Exam item: Same for "CC(=O)[C@H]1CC[C@H]2[C@@H]3CCC4=CC(=O)CC[C@]4(C)[C@H]3CC[C@]12C"
Marked response: 1.16

Exam item: Same read-out for O.O.O.O.O.O.O.O=S(=O)([O-])[O-].[Mg+2] [Magnesium sulfate] ?
Marked response: 1.04

Exam item: And the next one, N=C(N)NC(=N)NCCc1ccccc1 [Phenformin hydrochloride] ?
Marked response: 0.756

Exam item: Next up: O=P([O-])(O)O.[Na+] [Sodium phosphate monobasic]
Marked response: 1.11

====

Below: a set of entries, each annotated with reported cell-surface Lgr5 expression.
# System: Lgr5 (MarsCy1-Lgr5-EGFP, U2OS)
# PROTOCOL TEXT: cell-surface Lgr5 expression (SCi1 fluorescence, background-subtracted) relative to WT DMSO (fold of DMSO control); higher = more Lgr5 at the plasma membrane, active = hit call of the paper
# SETUP CONDITIONS: U2OS MarsCy1-Lgr5-EGFP stable; treatment time: overnight; 16 µM; library: Johns Hopkins Clinical Compound Library
Counter-ions that a name gives are not always drawn. Screen size: about 1,200 compounds; about 50 (4%) showed activity. This excerpt belongs to a sample that is enriched for actives.

Field: example entries. Status: answers known.
INSERT INTO measurements (molecule, test_value) VALUES
  ('CCC(C)C(C(=O)OCC[N+](C)(CC)CC)c1ccccc1 (stereo not given) [Valethamate bromide]', '1.1 (inactive)'),
  ('C[N+](C)(CCOc1ccccc1)Cc1ccccc1.O=C([O-])c1cc2ccccc2cc1O [Bephenium hydroxy-naphthoate]', '1.05 (inactive)');

Exam item: Look at this molecule and give its reported cell-surface Lgr5 expression. CC(=O)N(O)CCCCCNC(=O)CCC(=O)N(O)CCCCCNC(=O)CCC(=O)N(O)CCCCCN [Deferoxamine mesylate]
Marked response: 0.865 (inactive)

Exam item: Thanks! And CCN(CC)CCOCCOC(=O)C(CC)(CC)c1ccccc1 [Oxeladin citrate salt] ?
Marked response: 1.48 (active)

Exam item: Would you mind doing O=C(Cc1cccs1)N[C@@H]1C(=O)N2C(C(=O)O)=C(/C=C/c3ccc([N+](=O)[O-])cc3[N+](=O)[O-])CS[C@H]12 [Nitrocefin] as well?
Marked response: 0.867 (inactive)

Exam item: Queued: C[C@@H]1[C@H](O)[C@@H](C)/C=C/C=C/C=C/C=C/C=C/C=C/C=C/[C@H](O[C@@H]2O[C@H](C)[C@@H](O)[C@H](N)[C@@H]2O)C[C@@H]2O[C@](O)(C[C@@H](O)C[C@@H](O)[C@H](O)CC[C@@H](O)C[C@@H](O)CC(=O)O[C@H]1C)C[C@H](O)[C@H]2C(=O)O [Amphotericin B]
Marked response: 0.802 (inactive)

Exam item: Would you mind doing CCN(CC)CC#CCOC(=O)C(O)(c1ccccc1)C1CCCCC1 (stereo not given) [Oxybutynin chloride] as well?
Marked response: 0.687 (inactive)

Exam item: // repeat for O=Cc1cc(Br)cc(Br)c1O [3,5-Dibromosalicylaldehyde] and report
Marked response: 1.17 (inactive)

FYI, the data here is from the supplement of paper PMC4683952.
